Tested on: human embryonic stem cell derived neural stem cells (NSCs)
EXPERIMENT NOTES: Neural stem cell proliferation assay (neurogenesis assay)
Assay type: cell-based
TEST CONTEXT: Homo sapiens, Neural stem cell, 96 h; Table 1, novel compounds; concentration at which 150% activity of control (100%) is reached; ATP levels (CellTiterGlo) after 4 days incubation
METRIC NAME: EC (150% of control) (µM)
Numeric answer only, unit µM assumed.

[[record]]
molecule = "COc1ccc(-c2cncc3ccc(C(=O)NCCCc4ccccc4)nc23)cc1"
observed_value = 0.67

[[record]]
molecule = "CC(NC(=O)c1ccc2cncc(-c3ccccc3Cl)c2n1)C(C)(C)O (stereo not drawn)"
observed_value = 0.12

[[record]]
molecule = "NC(=O)c1ccc2cncc(-c3ccc(OC(F)(F)F)cc3)c2n1"
observed_value = 0.05

[[record]]
molecule = "COc1cccc(-c2cncc3ccc(C(=O)NCCCn4ccnc4)nc23)c1"
observed_value = 1.95


Request the reported EC (150% of control) associated with NC(=O)c1ccc2cncc(-c3ccc(Cl)nc3)c2n1 0.18

Request the reported EC (150% of control) associated with COCc1cccc(-c2cncc3ccc(C(N)=O)nc23)c1 0.02

Request the reported EC (150% of control) associated with O=C(NCCC(F)(F)F)c1ccc2cncc(-c3ccc(Cl)cc3)c2n1 0.15

Request the reported EC (150% of control) associated with NC(=O)c1ccc2cncc(-c3ccc(-n4cccn4)cc3)c2n1 0.01

Request the reported EC (150% of control) associated with O=C(NCc1ccncc1)c1ccc2cncc(-c3ccncc3)c2n1 0.29

---

Property: EC (150% of control); scope: individual molecules
System: human embryonic stem cell derived neural stem cells (NSCs)
EXPERIMENT NOTES: Neural stem cell proliferation assay (neurogenesis assay)
Format: cell-based
TEST CONTEXT: Homo sapiens, Neural stem cell, 96 h; Table 1, novel compounds; concentration at which 150% activity of control (100%) is reached; ATP levels (CellTiterGlo) after 4 days incubation

// solved cases for EC (150% of control) follow
[[record]]
molecule = "COc1ccccc1-c1cncc2ccc(C(=O)NCc3ccncc3)nc12"
observed_value = "0.56 µM"

[[record]]
molecule = "CC(C)(C)CNC(=O)c1ccc2cncc(-c3ccc(F)cc3)c2n1"
observed_value = "0.07 µM"

[[record]]
molecule = "NC(=O)c1ccc2cncc(-c3cccc(Cl)c3)c2n1"
observed_value = "0.09 µM"

[[record]]
molecule = "CC(NC(=O)c1ccc2cncc(-c3ccccc3F)c2n1)c1ccc(S(C)(=O)=O)cc1 (stereo not shown)"
observed_value = "0.5 µM"

[[record]]
molecule = "CC(C)(CO)NC(=O)c1ccc2cncc(-c3ccc(Cl)cc3)c2n1"
observed_value = "1.06 µM"


Request the reported EC (150% of control) associated with N#CC1(NC(=O)c2ccc3cncc(-c4ccc(Cl)cc4)c3n2)CC1 1.84 µM

Request the reported EC (150% of control) associated with O=C(NCC(F)(F)F)c1ccc2cncc(-c3ccc(Cl)cc3)c2n1 0.23 µM

Request the reported EC (150% of control) associated with O=C(NCc1ccncc1)c1ccc2cncc(-c3cccnc3)c2n1 0.54 µM

Request the reported EC (150% of control) associated with COc1ccc(-c2cncc3ccc(C(=O)NCCc4ccccc4)nc23)cc1 0.8 µM

Request the reported EC (150% of control) associated with CS(=O)(=O)CCNC(=O)c1ccc2cncc(-c3ccc(F)cc3F)c2n1 0.06 µM

Request the reported EC (150% of control) associated with Cc1ccnc(-c2cncc3ccc(C(=O)NCc4ccccc4)nc23)c1 0.94 µM

Request the reported EC (150% of control) associated with COc1cccc(-c2cncc3ccc(C(=O)NCc4ccncc4)nc23)c1 0.28 µM

Request the reported EC (150% of control) associated with CCCCCCNC(=O)Cc1cccc(-c2cncc3ccc(C(N)=O)nc23)c1 0.18 µM

Request the reported EC (150% of control) associated with CCCCCCNC(=O)c1ccc(-c2cncc3ccc(C(N)=O)nc23)cc1 0.09 µM

Request the reported EC (150% of control) associated with O=C(c1ccc2cncc(-c3ccc(Cl)cc3F)c2n1)N1CCC(O)C1 (stereo not shown) 0.13 µM

Request the reported EC (150% of control) associated with CC(C)NC(=O)c1ccc2cncc(-c3ccc(Cl)cc3)c2n1 0.6 µM
